Reported normalized growth values follow for various compounds
assay: chemical genetic growth profiling, strain panel (AID 1159580);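 note: tested at 20 µM; growth read once vehicle control cultures reached saturation at 30 °C; 1 = growth at the plate median or of vehicle wells; lower values mean less growth of the strain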; conditions: S. cerevisiae deletion strains, growth OD, locus YDR159W, strain sac3, hits give low values
Among all 5,500 compounds or so, about 2,000 (36%) were called active. Not shown: some 18% with an inconclusive outcome. The list shows a part of the results.
Please give only the number in your answer, with no unit.

>>> df
                                   compound  observedmeasurement
0                 Cc1cc(=O)oc2cc(O)c(O)cc12                0.997
1  CCN1CCN(C(=O)NC(C(=O)N[C@@H]2C(=O)N3[C@@H]2SC(C)(C)[C@@H]3C(=O)O)c2ccccc2)C(=O)C1=O (some centres undefined)                    1

Param item = O=P1(NCCCl)OCCCN1CCCl (centres undefined) ; retrieve measured normalized growth.
0.982

Same question for CC(C)CCCC(C)[C@H]1CCC2C3CC=C4CC(=O)CC[C@]4(C)C3CC[C@@]21C (some centres undefined) please.
0.999

Same question for CC(Cc1cccc(C(F)(F)F)c1)NCCOC(=O)c1ccccc1 (centres undefined) please.
0.995

Same question for `CCCOc1ccc2nc(NC(=O)OC)[nH]c2c1` please.
1.01

Same question for `CCCc1cc(=O)[nH]c(=S)[nH]1` please.
0.995

Same question for CC(C)c1ccc2c(c1)CCC1[C@](C)(CN)CCC[C@]21C (some centres undefined) please.
1.02

Same question for `COC(=O)/C(=C1\OC(=O)C(c2ccccc2)=C1O)c1ccccc1` please.
0.974

All values here come from PubChem BioAssay AID1159580.
